Molecular target: TAS1R1/TAS1R3 variants
Test: Ca2+ imaging (FlexStation II), comparison across receptor variants (AR, TR, AC, TC)
Conditions: the other variants (AR, AC and TC), MSG alone
Quantity Kind: EC50

Sample N[C@@H](CCC(=O)O)C(=O)[O-].[Na+] [MSG, monosodium glutamate] — what was its EC50? 27.6 to 32.2 mM
